assay: Optical properties; format: physicochemical; settings: in methanol
Measurement Kind: Extinction Coefficient (cm^−1M^−1)

The molecule listed as CC1=[O+][B-](F)(F)OC(C)=C1C [Compound 2] shows Extinction Coefficient (cm^−1M^−1) equal to 12,200 cm^−1M^−1

The molecule listed as CC1=CC(C)=[O+][B-](F)(F)O1 [Compound 1] shows Extinction Coefficient (cm^−1M^−1) equal to 9,180 cm^−1M^−1

The molecule listed as COc1cc(/C=C/C2=CC(/C=C/c3ccc(OC(=O)c4c(F)cc(F)cc4F)c(OC)c3)=[O+][B-](F)(F)O2)ccc1OC(=O)c1c(F)cc(F)cc1F [Compound 9] shows Extinction Coefficient (cm^−1M^−1) equal to 50,800 cm^−1M^−1

The molecule listed as CC1=C2CCCCC2=[O+][B-](F)(F)O1 [Compound 15] shows Extinction Coefficient (cm^−1M^−1) equal to 12,000 cm^−1M^−1

The molecule listed as COc1cc(/C=C/C2=CC(/C=C/c3ccc(OC(=O)CCN4C(=O)C=CC4=O)c(OC)c3)=[O+][B-](F)(F)O2)ccc1OC(=O)CCN1C(=O)C=CC1=O [Compound 10] shows Extinction Coefficient (cm^−1M^−1) equal to 54,000 cm^−1M^−1

The molecule listed as CC1=CC(c2ccccc2)=[O+][B-](F)(F)O1 [Compound 14] shows Extinction Coefficient (cm^−1M^−1) equal to 19,800 cm^−1M^−1

The molecule listed as CCC1=C(C)O[B-](F)(F)[O+]=C1C [Compound 3] shows Extinction Coefficient (cm^−1M^−1) equal to 12,000 cm^−1M^−1

New cases:
The molecule listed as CCOC(=O)CCC1=C(C)O[B-](F)(F)[O+]=C1C [Compound 6] shows Extinction Coefficient (cm^−1M^−1) equal to 12,600 cm^−1M^−1

###

experiment: Optical properties; format: physicochemical; details: in methanol
Measurement Kind: Abs (nm)
Answers are plain numbers, in nm.

Consider the reported Abs (nm) for these molecules:
The molecule listed as CC1=CC(c2ccccc2)=[O+][B-](F)(F)O1 [Compound 14] shows Abs (nm) equal to 325

The molecule listed as CCC1=C(C)O[B-](F)(F)[O+]=C1C [Compound 3] shows Abs (nm) equal to 303

For each of the items listed, what is its Abs (nm)?
1. CC1=CC(C)=[O+][B-](F)(F)O1 [Compound 1]
2. CC1=[O+][B-](F)(F)OC(C)=C1C [Compound 2]
3. CC1=C2CCCCC2=[O+][B-](F)(F)O1 [Compound 15]
4. COc1cc(/C=C/C2=CC(/C=C/c3ccc(OC(=O)CCN4C(=O)C=CC4=O)c(OC)c3)=[O+][B-](F)(F)O2)ccc1OC(=O)CCN1C(=O)C=CC1=O [Compound 10]
5. CCOC(=O)CCC1=C(C)O[B-](F)(F)[O+]=C1C [Compound 6]
6. COc1cc(/C=C/C2=CC(/C=C/c3ccc(OC(=O)c4c(F)cc(F)cc4F)c(OC)c3)=[O+][B-](F)(F)O2)ccc1OC(=O)c1c(F)cc(F)cc1F [Compound 9]

## Result
1: 279; 2: 303; 3: 303; 4: 434; 5: 301; 6: 430

###

test: Solvolytic stability of difluoro-dioxaborinins by 19F NMR in water/DMSO; assay type: physicochemical; details: in 50 M H2O
Measurement Kind: times more resistant to solvolysis than 1 (times)
Give bare numbers, in times.

Consider the reported times more resistant to solvolysis than 1 for these compounds:
The compound listed as CCOC(=O)CCC1=C(C)O[B-](F)(F)[O+]=C1C [Compound 6] shows times more resistant to solvolysis than 1 equal to 1.9

The compound listed as CC1=C2CCCCC2=[O+][B-](F)(F)O1 [Compound 15] shows times more resistant to solvolysis than 1 equal to 2.5

The compound listed as CC1=[O+][B-](F)(F)OC(C)=C1C [Compound 2] shows times more resistant to solvolysis than 1 equal to 6.2

Attention now shifts to the item below.
The compound listed as CCC1=C(C)O[B-](F)(F)[O+]=C1C [Compound 3] shows times more resistant to solvolysis than 1 equal to 5.6

Each recorded value in this set is attributed to paper PMC8399557.
